Tested on: EfPiwi piRISC loaded with piRNA #1 (26 nt)
Assay: pre-steady-state target cleavage rate (min^-1); auxiliary factor: 500 nM Ephydatia muelleri Gtsf1; guide: piRNA #1 5'p-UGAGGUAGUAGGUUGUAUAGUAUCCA; MIWI and MILI are mouse PIWI proteins and EfPiwi is from a freshwater sponge; tags in brackets are library labels; higher = faster piRNA-guided slicing of the target
# if value of pre-steady-state target cleavage rate reaches 0.004, tag y; if it stays below, tag n

GGAGACGAUACUAUACAUCCUACUAGCUCA: n
GGAGACGAUACUAUACAUCCUUCUACCUCA: n
GGAGACGAUACUAUUCAACCUACUACCUGA: y
GGAGAGGUAACUAUACAACCUACUACCUCA: y
GGAGACGAUACUAAACAACCAACUACCUCA: n
GGAGAGUAUACUAUACAACCUACUACCUCA: y
GGAGACGGUACUAUACAACCUACUACCUCA: y
GGAGAGGAUACUAUACAACCUACUAACUCA: y
GGAGUGGAUACUAUACAACCUACUACCUGCA: y
GGAGACGAUACUAAACAACCUACUACCUGA: n
GGAGAGGAUACUAUACAACCUACUACCUGA: y
GGAGAGGAUACUAUACAUCCUUCUACCUCA: n
GGAGUGGAUUCUAUACAACCUACUACCUGA: n

Values compiled from the supplement of paper PMC10338343.
